# Tested on: windgrass (Apera spica-venti)
# Assay: Test B postemergence plant response
# Assay type: in vivo
# Condition context: 62 g ai/ha, postemergence; 0 is no effect, 100 is complete control; 13 to 15 days
Measurement label: Windgrass plant response rating (0 to 100 scale)
Answers are plain numbers.

Worked cases, Windgrass plant response rating (0 to 100 scale) given:
{"columns": ["Molecule", "System tested", "Result"],
 "data": [
  ["CCCc1ncc(C(=O)C2=C(O)CCCC2=O)c(=O)n1CC1CCCO1 (stereo not shown)", "windgrass (Apera spica-venti)", 60],
  ["Cc1ccccc1-c1ncc(C(=O)C2=C(O)CCCC2=O)c(=O)n1-c1ccccc1", "windgrass (Apera spica-venti)", 5],
  ["COCCn1c(-c2cc(F)cc(F)c2)ncc(C(=O)C2=C(O)CCCC2=O)c1=O", "windgrass (Apera spica-venti)", 85]
]}

Let us examine a further case.
The reported Windgrass plant response rating (0 to 100 scale) of the molecule `CC(C)n1c(-c2ccccc2)ncc(C(=O)C2=C(O)CCCC2=O)c1=O` was 0

* * *

For each entry below, report its Plant response rating, Velvetleaf value.
# Tested on: velvetleaf (Abutilon theophrasti)
# Assay: Test B pre-/postemergence plant response
# Type: in vivo
# Condition context: 31 g ai/ha, postemergence; scale 0 to 100, 0 is no effect, 100 is complete control
Answers are plain numbers.

Recorded Plant response rating, Velvetleaf, per entry:
{"columns": ["Compound", "Plant response rating, Velvetleaf"],
 "data": [
  ["O=C1CCCC(OC(=O)C2CC2)=C1C(=O)c1cnc(-c2ccccc2)n(-c2ccccc2)c1=O [Compound 88]", 80],
  ["Cc1ccc(-c2ncc(C(=O)C3=C(O)CCCC3=O)c(=O)n2-c2ccccc2)cc1 [Compound 80]", 85],
  ["CC(C)n1c(-c2ccccc2)ncc(C(=O)C2=C(O)CCCC2=O)c1=O [Compound 95]", 85],
  ["CCCCc1ncc(C(=O)C2=C(O)CCCC2=O)c(=O)n1-c1cccc(C)c1 [Compound 63]", 95]
]}

// below: Plant response rating, Velvetleaf requested for another compound
The recorded Plant response rating, Velvetleaf for CCCCCn1c(-c2ccccc2)ncc(C(=O)C2=C(O)CCCC2=O)c1=O [Compound 89] is 90

* * *

Provide the reported Plant response rating, Sunflower of each item.
# Test system: sunflower (common oilseed sunflower, Helianthus annuus)
# Assay: Test B pre-/postemergence plant response
# Type: in vivo
# Condition context: Preemergence, 31 g ai/ha; scale 0 to 100 (0 no effect, 100 complete control)
Answers are plain numbers.

Completed entries (count: 2):
{"columns": ["Smiles input", "System tested", "Plant response rating, Sunflower"],
 "data": [
  ["O=C1CCCC(O)=C1C(=O)c1cnc(-c2ccccc2)n(-c2cccc(Br)c2)c1=O", "sunflower (common oilseed sunflower, Helianthus annuus)", 0],
  ["Cc1cc(-n2c(-c3ccccc3)ncc(C(=O)C3=C(O)CCCC3=O)c2=O)ccc1F", "sunflower (common oilseed sunflower, Helianthus annuus)", 15]
]}

For each of the compounds below, note its Plant response rating, Sunflower.
1. CCCCc1ncc(C(=O)C2=C(O)CCCC2=O)c(=O)n1-c1ccccc1
2. CCCCc1ncc(C(=O)C2=C(O)CCCC2=O)c(=O)n1-c1cccc(C)c1
3. COCCCn1c(-c2cc(F)cc(F)c2)ncc(C(=O)C2=C(O)CCCC2=O)c1=O

Response given:
[0, 5, 45]

Record `COc1ccc(-n2c(-c3ccccc3)ncc(C(=O)C3=C(O)CCCC3=O)c2=O)cc1OC` . Reported Plant response rating, Sunflower: 75
